# testTarget: T1, human LGR6 (leucine-rich repeat containing, G protein-coupled receptor 6) with a Flag-tag at the N-terminus, … (human, UniProt Q9HBX8-3 25-967)
# T1 construct: human LGR6, predicted mature form AA25-967 of NP_001017403; The CD8 signal peptide replaces LGR6's own; also called Flag-LGR6; LGR6 WT; source: HEK293T cells, transiently transfected (reporter assays); not shown: Flag, N-terminal, kept
# T1 sequence (looked up): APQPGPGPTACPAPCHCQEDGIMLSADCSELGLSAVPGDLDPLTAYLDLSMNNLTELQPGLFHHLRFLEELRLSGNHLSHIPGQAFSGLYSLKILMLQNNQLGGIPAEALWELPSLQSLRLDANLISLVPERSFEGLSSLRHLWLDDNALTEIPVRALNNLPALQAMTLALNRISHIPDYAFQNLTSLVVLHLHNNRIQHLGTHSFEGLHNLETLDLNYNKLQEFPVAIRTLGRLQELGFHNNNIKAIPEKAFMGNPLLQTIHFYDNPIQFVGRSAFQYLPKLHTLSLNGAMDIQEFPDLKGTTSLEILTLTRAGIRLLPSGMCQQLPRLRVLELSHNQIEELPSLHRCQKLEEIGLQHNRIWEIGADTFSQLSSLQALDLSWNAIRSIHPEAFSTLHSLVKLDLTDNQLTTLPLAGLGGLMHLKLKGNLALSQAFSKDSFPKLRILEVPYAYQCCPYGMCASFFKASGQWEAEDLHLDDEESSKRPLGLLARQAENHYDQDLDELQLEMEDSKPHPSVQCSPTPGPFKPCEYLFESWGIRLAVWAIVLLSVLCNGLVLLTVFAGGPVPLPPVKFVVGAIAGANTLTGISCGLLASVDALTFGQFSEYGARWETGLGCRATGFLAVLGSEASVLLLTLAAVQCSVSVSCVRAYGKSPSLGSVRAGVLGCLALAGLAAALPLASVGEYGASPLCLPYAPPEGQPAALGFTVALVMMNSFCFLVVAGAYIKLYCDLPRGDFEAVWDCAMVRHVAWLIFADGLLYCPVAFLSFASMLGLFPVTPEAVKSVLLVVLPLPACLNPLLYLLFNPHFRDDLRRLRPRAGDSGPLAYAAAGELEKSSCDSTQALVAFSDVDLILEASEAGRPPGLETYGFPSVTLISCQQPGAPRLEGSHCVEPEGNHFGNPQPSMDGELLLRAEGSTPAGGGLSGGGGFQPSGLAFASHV
# protocolDetails: whole-cell-based competition binding assay; HEK293 cells stably expressing Flag-LGR6 incubated with mRSPO1-Fc plus serial dilutions of purified recombinant RSPO1–4; maximum specific binding is the difference with and without mRSPO1-Fc
# conditionParameters: one partner purified
measurementLabel: IC50

State the recorded IC50 for this entry: purified recombinant R-spondin 1 (ligand, UniProt Q2MKA7 21-263, looked up, R-spondin 1 (RSPO1); also called RSPO1; source: purified recombinant) SRGIKGKRQRRISAEGSQACAKGCELCSEVNGCLKCSPKLFILLERNDIRQVGVCLPSCPPGYFDARNPDMNKCIKCKIEHCEACFSHNFCTKCKEGLYLHKGRCYPACPEGSSAANGTMECSSPAQCEMSEWSPWGPCSKKQQLCGFRRGSEERTRRVLHAPVGDHAACSDTKETRRCTVRRVPCPEGQKRRKGGQGRRENANRNLARKESKEAGAGSRRRKGQQQQQQQGTVGPLTSAGPA
3.3 nM

State the recorded IC50 for this entry: purified recombinant R-spondin 2 (ligand, UniProt Q6UXX9 22-243, looked up, R-spondin 2 (RSPO2); also called RSPO2; source: purified recombinant) QGNRWRRSKRASYVSNPICKGCLSCSKDNGCSRCQQKLFFFLRREGMRQYGECLHSCPSGYYGHRAPDMNRCARCRIENCDSCFSKDFCTKCKVGFYLHRGRCFDECPDGFAPLEETMECVEGCEVGHWSEWGTCSRNNRTCGFKWGLETRTRQIVKKPVKDTILCPTIAESRRCKMTMRHCPGGKRTPKAKEKRNKKKKRKLIERAQEQHSVFLATDRANQ
0.5 nM

State the recorded IC50 for this entry: purified recombinant R-spondin 3 (ligand, UniProt Q9BXY4 22-272, looked up, R-spondin 3 (RSPO3); also called RSPO3; source: purified recombinant) QNASRGRRQRRMHPNVSQGCQGGCATCSDYNGCLSCKPRLFFALERIGMKQIGVCLSSCPSGYYGTRYPDINKCTKCKADCDTCFNKNFCTKCKSGFYLHLGKCLDNCPEGLEANNHTMECVSIVHCEVSEWNPWSPCTKKGKTCGFKRGTETRVREIIQHPSAKGNLCPPTNETRKCTVQRKKCQKGERGKKGRERKRKKPNKGESKEAIPDSKSLESSKEIPEQRENKQQQKKRKVQDKQKSVSVSTVH
1.7 nM

State the recorded IC50 for this entry: purified recombinant R-spondin 4 (ligand, UniProt Q2I0M5 20-234, looked up, R-spondin 4 (RSPO4); also called RSPO4; source: purified recombinant) LNRRKKQVGTGLGGNCTGCIICSEENGCSTCQQRLFLFIRREGIRQYGKCLHDCPPGYFGIRGQEVNRCKKCGATCESCFSQDFCIRCKRQFYLYKGKCLPTCPPGTLAHQNTRECQGECELGPWGGWSPCTHNGKTCGSAWGLESRVREAGRAGHEEAATCQVLSESRKCPIQRPCPGERSPGQKKGRKDRRPRKDRKLDRRLDVRPRQPGLQP
7 nM
